Tested on: thrombocytes
EXPERIMENT NOTES: Test for inhibition of thrombocyte aggregation (turbidimetric, Born; aggregometer PAP 4)
Type: cell-based
CONDITION NOTES: Platelet; concentration which inhibits thrombocyte aggregation by 50%; activator 0.05 U of thrombin/ml or 1 μg of collagen/ml; 37° C.; read-out: IC50 (platelet aggregation)
METRIC NAME: IC50 (µM)
The reply should be a number in µM, with the unit left off.

Which measured IC50 value corresponds to O=C1CC(SCC(O)C(=O)O)[C@]2(O)c3c(ccc(O)c31)-c1ccc(O)c3c1C2C1OC1C3O (stereo partly shown) [Thioperylenol, thioperylenol] ?
7.2

---

Tested on: cells
EXPERIMENT NOTES: Cytotoxicity by staining cells with calcein (calcein AM fluorescence)
Format: cell-based
CONDITION NOTES: read-out: IC50 (toxicity)
METRIC NAME: IC50

Which measured IC50 value corresponds to O=C1C[C@@H](O)[C@H]2c3c(ccc(O)c31)-c1ccc(O)c3c1[C@]2(O)C=CC3=O (stereo in doubt) ?
> 100 µM
